system: SF-268; experiment: NCI tumour cell line growth inhibition, 48 h
Active and inactive are the calls of the source. Cut-off read from the data, not from the text of the source: active = GI50 up to about 1.1 µM and inactive = higher.
Possible outcomes: class 1 for active, class 0 for inactive

- compound: "NC(=O)C(=O)C1CCC2=C(Sc3ccccc3N2)C1=O (stereo unspecified)"
  system_under_test: "SF-268"
  discrete_label: "class 0"
- compound: "CC(=O)OC1=NN=C2COC(c3ccccc3OC(C)=O)=NN2C1"
  system_under_test: "SF-268"
  discrete_label: "class 0"
- compound: "COc1c(O)c2c(c3cc(C(=O)N4CCc5c4c(O)c(OC)c4[nH]c(C(=O)N6CC7CC78C6=CC(=O)c6[nH]cc(C)c68)cc54)[nH]c13)CCN2C(N)=O (stereo unspecified) [CC-1065]"
  system_under_test: "SF-268"
  discrete_label: "class 1"
- compound: "COc1ccc2[nH]c3c(C)c4c(c(C)c3c2c1)CN(C)CC4"
  system_under_test: "SF-268"
  discrete_label: "class 0"
- compound: "C[Si](C)(C)/C=C/CCC(C=O)(CCCl)c1ccccc1 (stereo unspecified)"
  system_under_test: "SF-268"
  discrete_label: "class 0"
- compound: "O=C1C=C(NCCOCCO)C(=O)c2c(O)ccc(O)c21"
  system_under_test: "SF-268"
  discrete_label: "class 0"
- compound: "O=c1[nH]c(=O)n(C2CC(O)C(CO)O2)c2nc3ccc4ccccc4c3nc12 (stereo unspecified)"
  system_under_test: "SF-268"
  discrete_label: "class 0"
- compound: "O=C(O)CSc1nnc(/C=C/c2ccccc2)[nH]1"
  system_under_test: "SF-268"
  discrete_label: "class 0"
- compound: "C=C1CC2C[C@H](OS(=O)(=O)c3ccc(C)cc3)C(C1)N2C (stereo partly specified)"
  system_under_test: "SF-268"
  discrete_label: "class 0"
- compound: "O=[N+]([O-])C1(C2([N+](=O)[O-])CCCC2)CCCC1"
  system_under_test: "SF-268"
  discrete_label: "class 0"
- compound: "C1OC1C1CO1 (stereo unspecified)"
  system_under_test: "SF-268"
  discrete_label: "class 0"
- compound: "CN(C)N1C(=O)SCC(c2ccccc2)(c2ccccc2)C1=O"
  system_under_test: "SF-268"
  discrete_label: "class 0"
- compound: "O=C1C(Cl)C(c2cccc(O)c2)N1n1cnc2ccccc2c1=O (stereo unspecified)"
  system_under_test: "SF-268"
  discrete_label: "class 0"
- compound: "Cc1cc2c(cc1Cl)SC(NNC1=NCCN1)=NS2(=O)=O"
  system_under_test: "SF-268"
  discrete_label: "class 0"
- compound: "CCN(C(C)=O)c1cnc(/C=N/NC(N)=S)c2ccccc12"
  system_under_test: "SF-268"
  discrete_label: "class 0"
- compound: "COC1=CC(=O)[C@]2(C)[C@H](C1=O)C(C)[C@H]2c1ccc(OC)cc1 (stereo partly specified)"
  system_under_test: "SF-268"
  discrete_label: "class 0"
- compound: "CCOP(=O)(OCC)/C(C#N)=C/c1c(C)[nH]c2ccccc12"
  system_under_test: "SF-268"
  discrete_label: "class 0"
- compound: "C=CCn1c(=O)c2ccccc2[n+]2c(C)c(C(=O)OCC)sc12"
  system_under_test: "SF-268"
  discrete_label: "class 0"
- compound: "Clc1ccc2nc(-c3ccccc3)nc(Cl)c2c1"
  system_under_test: "SF-268"
  discrete_label: "class 0"
- compound: "O=c1[nH]/c(=C/c2ccc(OCc3ccccc3)cn2)c(=O)[nH]/c1=C/c1ccccc1"
  system_under_test: "SF-268"
  discrete_label: "class 1"
- compound: "Cc1ccc(C2CC(c3ccco3)=NN2c2ccccc2)o1 (stereo unspecified)"
  system_under_test: "SF-268"
  discrete_label: "class 0"
- compound: "C=CC(=O)N1C/C(=C\\c2ccc(Cl)cc2)C(=O)/C(=C/c2ccc(Cl)cc2)C1"
  system_under_test: "SF-268"
  discrete_label: "class 1"
- compound: "COc1cc2cc(C(=O)N3CC(COS(C)(=O)=O)c4ccc(O)cc43)[nH]c2c(OC)c1OC (stereo unspecified)"
  system_under_test: "SF-268"
  discrete_label: "class 1"
- compound: "OC1C#CCSCC#C/C=C\\1 (stereo unspecified)"
  system_under_test: "SF-268"
  discrete_label: "class 0"
- compound: "C=C(C)CC1(O[Si](C)(C)C)C(=O)C(OCC)=C1OCC (stereo unspecified)"
  system_under_test: "SF-268"
  discrete_label: "class 0"
- compound: "Cn1c(N/N=C/c2ccc(Cl)cc2)nc(-c2ccc(Cl)cc2)c(C#N)c1=O"
  system_under_test: "SF-268"
  discrete_label: "class 0"
- compound: "CC1CN(CCO)CC(C)O1 (stereo unspecified)"
  system_under_test: "SF-268"
  discrete_label: "class 0"
- compound: "N=C(N)NS(=O)(=O)c1ccc(NNc2c3ccccc3nc3c(C(=O)Nc4ccc(S(=O)(=O)Nc5ncccn5)cc4)cccc23)cc1"
  system_under_test: "SF-268"
  discrete_label: "class 0"
- compound: "O=C1C=CC2(CCC23C=CC(=O)O3)O1 (stereo unspecified)"
  system_under_test: "SF-268"
  discrete_label: "class 0"
- compound: "S=C(c1c[nH]c2ccccc12)N1CCN(Cc2ccccc2)CC1"
  system_under_test: "SF-268"
  discrete_label: "class 0"
- compound: "O=C(Cn1ccc(=O)[nH]c1=O)Nc1ccc(C(=O)O)c(O)c1"
  system_under_test: "SF-268"
  discrete_label: "class 0"
